B1: FBF1 (parent)
chain: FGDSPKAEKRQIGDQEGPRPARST

variants of: B1; assay: protein stability index of a GFP-peptide fusion (GPS, HEK-293T) (PSI 1-6); higher = more stable; conditions: c terminus: a fixed tail appended;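 note: lentivirally expressed fusions sorted by FACS into six bins by GFP to DsRed ratio, PSI derived from sequencing read proportions per bin multiplied by bin number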
Catalogue of variants with associated protein stability index
Give only the figure.

ALTERATION	REPORTED_VALUE
E8C	4.11
P18C	5.22
A21V	5.42
G13E	5.34
F1K	5.79
R10L	4.59

Indicate its recorded protein stability index; the variant in question is G17H
4.83

// fetch protein stability index given entry R19H
3.86

Return value of protein stability index for input P20N , no commentary.
4.89

Give protein stability index for Q15R
4.28

Fill in protein stability index for record K6I
4.78
